Just for reference, paper PMC10945332 is where these values come from.

We begin with a simple list: items and their reported IC50.
# Assayed System: human CCK2R (Homo sapiens)
# Construct: stably transfected to over-express the human full-length CCK2R (A431-CCK2R); expressed in transfected cells
# Sequence (P32239 whole entry): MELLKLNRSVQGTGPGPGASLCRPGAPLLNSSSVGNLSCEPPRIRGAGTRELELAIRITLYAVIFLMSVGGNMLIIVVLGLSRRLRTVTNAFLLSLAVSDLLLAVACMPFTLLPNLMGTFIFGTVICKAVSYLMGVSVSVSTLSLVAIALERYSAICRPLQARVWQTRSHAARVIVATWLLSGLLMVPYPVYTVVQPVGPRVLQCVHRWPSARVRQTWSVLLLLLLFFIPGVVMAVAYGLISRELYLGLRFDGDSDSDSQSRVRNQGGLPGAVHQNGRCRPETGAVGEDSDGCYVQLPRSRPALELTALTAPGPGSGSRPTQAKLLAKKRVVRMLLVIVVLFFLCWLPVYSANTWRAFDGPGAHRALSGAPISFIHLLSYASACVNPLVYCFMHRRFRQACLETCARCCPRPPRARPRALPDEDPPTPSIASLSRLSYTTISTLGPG
# Run Description: Competitive binding against [177Lu]Lu-DOTA-CP04 in A431-CCK2R cells
# Experimental Setup: N-terminal free linear peptides; vs [177Lu]Lu-DOTA-CP04 in A431-CCK2R cells; average of 2-4 biological replicates; read-out: IC50
Where a SMILES comes first, the peptide text is derived from it. [ ]: non-standard residue; d: D form. 1Nal = N[C@@H](Cc1cccc2ccccc12)C(=O)O; NMeNle = CCCC[C@H](NC)C(=O)O; Sar = CNCC(=O)O
Measurement Kind: IC50 (nM)

1. CCCC[C@@H](C(=O)N[C@@H](CC(=O)O)C(=O)N[C@@H](Cc1cccc2ccccc12)C(N)=O)N(C)C(=O)[C@H](Cc1c[nH]c2ccccc12)NC(=O)CN(C)C(=O)[C@H](Cc1ccc(O)cc1)NC(=O)[C@H](C)NC(=O)[C@@H](CCC(=O)O)NC(=O)[C@@H](CCC(=O)O)NC(=O)[C@@H](C)NC(=O)[C@@H](CCC(=O)O)NC(=O)[C@@H](CCC(=O)O)NC(=O)[C@H](N)CCC(=O)O [GA8] (H-[dE][dE][dE][dA][dE][dE]AY[Sar]W[NMeNle]D[1Nal]-NH2) : 1.62
2. CCCC[C@@H](C(=O)N[C@@H](CC(=O)O)C(=O)N[C@@H](Cc1cccc2ccccc12)C(N)=O)N(C)C(=O)[C@H](Cc1c[nH]c2ccccc12)NC(=O)CN(C)C(=O)[C@H](Cc1ccc(O)cc1)NC(=O)[C@H](C)NC(=O)[C@@H](CCC(=O)O)NC(=O)[C@@H](CCC(=O)O)NC(=O)[C@@H](CCC(=O)O)NC(=O)[C@@H](CCC(=O)O)NC(=O)[C@@H](C)NC(=O)[C@H](N)CCC(=O)O [GA6] (H-[dE][dA][dE][dE][dE][dE]AY[Sar]W[NMeNle]D[1Nal]-NH2) : 1.23
3. CCCC[C@@H](C(=O)N[C@@H](CC(=O)O)C(=O)N[C@@H](Cc1cccc2ccccc12)C(N)=O)N(C)C(=O)[C@H](Cc1c[nH]c2ccccc12)NC(=O)CN(C)C(=O)[C@H](Cc1ccc(O)cc1)NC(=O)[C@H](C)NC(=O)[C@@H](C)NC(=O)[C@@H](CCC(=O)O)NC(=O)[C@@H](CCC(=O)O)NC(=O)[C@@H](CCC(=O)O)NC(=O)[C@@H](CCC(=O)O)NC(=O)[C@H](N)CCC(=O)O [GA10] (H-[dE][dE][dE][dE][dE][dA]AY[Sar]W[NMeNle]D[1Nal]-NH2) : 1.62
4. CCCC[C@@H](C(=O)N[C@@H](CC(=O)O)C(=O)N[C@@H](Cc1cccc2ccccc12)C(N)=O)N(C)C(=O)[C@H](Cc1c[nH]c2ccccc12)NC(=O)CN(C)C(=O)[C@H](Cc1ccc(O)cc1)NC(=O)[C@H](C)NC(=O)[C@@H](CCC(=O)O)NC(=O)[C@@H](CCC(=O)O)NC(=O)[C@@H](CCC(=O)O)NC(=O)[C@@H](C)NC(=O)[C@@H](CCC(=O)O)NC(=O)[C@H](N)CCC(=O)O [GA7] (H-[dE][dE][dA][dE][dE][dE]AY[Sar]W[NMeNle]D[1Nal]-NH2) : 0.184
